This collection of values is drawn from patent US20060067886A1.

Avg % ID, Pancreas for assorted compounds
assay: Biodistribution of radiometal-DOTA-BBN conjugates in CF1 normal mice; details: 1 hour post-injection
Report as a plain number; the unit % ID is understood.

Input line: Need Avg % ID, Pancreas, item CSCC[C@H](NC(=O)[C@H](CC(C)C)NC(=O)[C@H](Cc1cnc[nH]1)NC(=O)CNC(=O)[C@@H](NC(=O)[C@H](C)NC(=O)[C@H](Cc1c[nH]c2ccccc12)NC(=O)[C@H](CCC(N)=O)NC(=O)CCNC(=O)CN1CCN(CC(=O)O)CCN(CC(=O)O)CCN(CC(=O)O)CC1)C(C)C)C(N)=O [177Lu-DOTA-β-Ala-BBN[7-14]NH2] [metal not drawn]
Output line: 0.32

Input line: Okay, and CSCC[C@H](NC(=O)[C@H](CC(C)C)NC(=O)[C@H](Cc1cnc[nH]1)NC(=O)CNC(=O)[C@@H](NC(=O)[C@H](C)NC(=O)[C@H](Cc1c[nH]c2ccccc12)NC(=O)[C@H](CCC(N)=O)NC(=O)CCCCCCCNC(=O)CN1CCN(CC(=O)O)CCN(CC(=O)O)CCN(CC(=O)O)CC1)C(C)C)C(N)=O [177Lu-DOTA-8-Aoc-BBN[7-14]NH2] [metal not drawn] ?
Output line: 7.01

Next:
Input line: Need Avg % ID, Pancreas, item CSCC[C@H](NC(=O)[C@H](CC(C)C)NC(=O)[C@H](Cc1c[nH]cn1)NC(=O)CNC(=O)[C@@H](NC(=O)[C@H](C)NC(=O)[C@H](Cc1c[nH]c2ccccc12)NC(=O)[C@H](CCC(N)=O)NC(=O)CCCCNC(=O)CN1CCN(CC(=O)O)CCN(CC(=O)O)CCN(CC(=O)O)CC1)C(C)C)C(N)=O [177Lu-DOTA-5-Ava-BBN[7-14]NH2] [metal not drawn]
Output line: 3.78
